Reference for the values: patent US11702475B2

Assay: Analytical size exclusion chromatography (percent monomer)
Format: physicochemical
Settings: NEM-conjugated cysteine variants; SEC, Abs280 monomer region 5.5-6 minutes vs oligomer region 4-5.3 minutes
Listed next: entries and their corresponding Percent monomer.
recorded endpoint: Percent monomer (%)

INSERT INTO results (molecule, recorded_endpoint, measured_result) VALUES
  ('L32C: cysteine variant of P54AR4-83v2; NEM and VC-MMAF conjugates (conjugate, left off: small tags and cut ends, cysteine variant of P54AR4-83v2; NEM and VC-MMAF conjugates) LPAPKNLVVSEVTEDSARLSWDDPWAFYESFCIQYQESEKVGEAIVLTVPGSERSYDLTGLKPGTEYTVSIYGVHNVYKDTNMRGLPLSAIFTT', 'Percent monomer', 100),
  ('V12C (conjugate, left off: small tags and cut ends) LPAPKNLVVSECTEDSARLSWDDPWAFYESFLIQYQESEKVGEAIVLTVPGSERSYDLTGLKPGTEYTVSIYGVHNVYKDTNMRGLPLSAIFTT', 'Percent monomer', 66),
  ('E14C: cysteine variant of P54AR4-83v2 (SEQ ID NOS: 192 and 230); NEM and VC-MMAF conjugates (conjugate, NEM or vcMMAF conjugate; EGFR binding FN3 domain, NEM and VC-MMAF conjugates) MLPAPKNLVVSEVTCDSARLSWDDPWAFYESFLIQYQESEKVGEAIVLTVPGSERSYDLTGLKPGTEYTVSIYGVHNVYKDTNMRGLPLSAIFTT', 'Percent monomer', 96);
